System: IGROV1 ovarian
Assay: NCI tumour cell line growth inhibition, 48 h
For each record, write down the corresponding GI50.

{"compound": "CC1(C)CC[C@]2(C(=O)NCCNCCN)CC[C@]3(C)C(=CC[C@@H]4[C@@]5(C)CCC(=O)C(C)(C)[C@@H]5CC[C@]43C)[C@@H]2C1", "GI50": "1.69 µM"}
{"compound": "N#Cc1ccc2[nH]cc(Cc3c[nH]c4ccc(C#N)cc34)c2c1", "GI50": "12.3 µM"}
{"compound": "Oc1c(CN2CCCCC2)ccc2cccnc12", "GI50": "2.52 µM"}

I have 6 compounds here; please give me GI50 for each one.
1. C#Cc1cccc(Nc2nc(C)nc3cc(NC(=O)CCl)ccc23)c1
2. C[C@]12CC[C@@H]3c4ccc(O)cc4CC[C@H]3[C@@H]1CC(Cc1ccccc1)(Cc1ccccc1)C2=O
3. CCC(CO)Nc1nc(NCc2ccccc2)c2n[nH]c(C(C)C)c2n1 (stereo not given)
4. O=C(N/N=C\c1ccc(N(CCCl)CCCl)cc1)c1cccnc1
5. C=C(C)[C@@H]1C/C=C(/COC(C)=O)CC[C@H]2O[C@@]2(C)CC/C=C(\C)CC1
6. N[C@@H](Cc1c[nH]c2ccccc12)C(=O)NC1CCN(Cc2c[nH]c3ccc(Cl)cc23)CC1

output:
0.533 µM
20.3 µM
3.44 µM
> 100 µM
> 100 µM
8.78 µM

input: Consider the compound `NC(CCl)=NCC12CC3CC(CC(C3)C1)C2` and give its measured GI50.
output: 0.525 µM
